test: xn = mol fraction of the nth substance listed, in the solute-free solvent; settings: 298.15 K; x2 = 0.9
Think of 6 as a floor: if solubility (g/100 g solution) stands on it or above, it is 1; beneath it, -1.

- Molecule: "S=c1[nH]ncs1 + CCCO + O"
  Cat: 1
- Molecule: "OCCN(CCO)c1nc(N2CCCCC2)c2nc(N(CCO)CCO)nc(N3CCCCC3)c2n1 + CO + O"
  Cat: -1
- Molecule: "Cc1ncc(C[n+]2csc(CCO)c2C)c(N)n1.O=[N+]([O-])[O-] + O + CO"
  Cat: -1
- Molecule: "S=c1[nH]ncs1 + CO + O"
  Cat: 1
- Molecule: "S=c1[nH]ncs1 + CCO + O"
  Cat: 1
- Molecule: "S=c1[nH]ncs1 + CC(C)=O + O"
  Cat: 1
- Molecule: "Cc1ncc(C[n+]2csc(CCO)c2C)c(N)n1.O=[N+]([O-])[O-] + O + CC(C)=O"
  Cat: -1
- Molecule: "Cc1ncc(C[n+]2csc(CCO)c2C)c(N)n1.O=[N+]([O-])[O-] + O + CC(C)O"
  Cat: -1
- Molecule: "OCCN(CCO)c1nc(N2CCCCC2)c2nc(N(CCO)CCO)nc(N3CCCCC3)c2n1 + CCO + O"
  Cat: -1

* * *

test: xn = mol fraction of the nth substance listed, in the solute-free solvent; settings: 313.15 K; x2 = 0.6
Think of 20 as a floor: if solubility (g/100 g solution) stands on it or above, it is True; beneath it, False.

- Compound: "S=c1[nH]ncs1 + CC(C)=O + O"
  Cat: "True"
- Compound: "CC(N)C(=O)O (stereo not given) + O + CC(C)O"
  Cat: "False"
- Compound: "OCCN(CCO)c1nc(N2CCCCC2)c2nc(N(CCO)CCO)nc(N3CCCCC3)c2n1 + CCO + O"
  Cat: "False"
- Compound: "Cc1ncc(C[n+]2csc(CCO)c2C)c(N)n1.O=[N+]([O-])[O-] + O + CO"
  Cat: "False"

* * *

test: xn = mol fraction of the nth substance listed, in the solute-free solvent; details: 303.15 K; x2 = 0.8
Think of 4 as a floor: if solubility (g/100 g solution) stands on it or above, it is yes; beneath it, no.

- Molecule: "Cc1ncc(C[n+]2csc(CCO)c2C)c(N)n1.O=[N+]([O-])[O-] + O + CC(C)=O"
  Cat: "no"
- Molecule: "S=c1[nH]ncs1 + CC(C)=O + O"
  Cat: "yes"
- Molecule: "Cc1ncc(C[n+]2csc(CCO)c2C)c(N)n1.O=[N+]([O-])[O-] + O + CC(C)O"
  Cat: "no"
- Molecule: "CC(N)C(=O)O (stereo unspecified) + O + CCO"
  Cat: "no"
- Molecule: "OCCN(CCO)c1nc(N2CCCCC2)c2nc(N(CCO)CCO)nc(N3CCCCC3)c2n1 + CO + O"
  Cat: "yes"
- Molecule: "OCCN(CCO)c1nc(N2CCCCC2)c2nc(N(CCO)CCO)nc(N3CCCCC3)c2n1 + CC(C)O + O"
  Cat: "yes"
- Molecule: "S=c1[nH]ncs1 + CCO + O"
  Cat: "yes"
- Molecule: "CC(N)C(=O)O (stereo unspecified) + O + CC(C)=O"
  Cat: "no"
- Molecule: "CC(N)C(=O)O (stereo unspecified) + O + CCCO"
  Cat: "no"
- Molecule: "Cc1ncc(C[n+]2csc(CCO)c2C)c(N)n1.O=[N+]([O-])[O-] + O + CO"
  Cat: "no"
- Molecule: "CC(N)C(=O)O (stereo unspecified) + O + CO"
  Cat: "yes"

* * *

assay: xn = mol fraction of the nth substance listed, in the solute-free solvent; conditions: 318.15 K; x2 = 0.8
Recorded solubility (g/100 g solution) by entry
Property: solubility (g/100 g solution)

- Compound: "OCCN(CCO)c1nc(N2CCCCC2)c2nc(N(CCO)CCO)nc(N3CCCCC3)c2n1 + CCO + O"
  Observed result: 19.3
- Compound: "S=c1[nH]ncs1 + CCCO + O"
  Observed result: 21.2
- Compound: "S=c1[nH]ncs1 + CO + O"
  Observed result: 28.2
- Compound: "OCCN(CCO)c1nc(N2CCCCC2)c2nc(N(CCO)CCO)nc(N3CCCCC3)c2n1 + CC(C)O + O"
  Observed result: 20
- Compound: "S=c1[nH]ncs1 + CC(C)=O + O"
  Observed result: 35.7
- Compound: "OCCN(CCO)c1nc(N2CCCCC2)c2nc(N(CCO)CCO)nc(N3CCCCC3)c2n1 + CO + O"
  Observed result: 14.1
- Compound: "S=c1[nH]ncs1 + CCO + O"
  Observed result: 25
- Compound: "CCCCCOC(=O)Nc1nc(=O)n(C2OC(C)C(O)C2O)cc1F (stereo not drawn) + CCOC(C)=O + CCCCCCC"
  Observed result: 3.12

* * *

assay: xn = mol fraction of the nth substance listed, in the solute-free solvent; conditions: 323.15 K; x2 = 0.4
Recorded solubility (g/100 g solution) by entry

- Compound: "S=c1[nH]ncs1 + CO + O"
  solubility (g/100 g solution): 19.8
- Compound: "CCCCCOC(=O)Nc1nc(=O)n(C2OC(C)C(O)C2O)cc1F (stereo not drawn) + CCOC(C)=O + CCCCCCC"
  solubility (g/100 g solution): 0.267
- Compound: "CC(N)C(=O)O (stereo not drawn) + O + CC(C)=O"
  solubility (g/100 g solution): 0.138
- Compound: "OCCN(CCO)c1nc(N2CCCCC2)c2nc(N(CCO)CCO)nc(N3CCCCC3)c2n1 + CC(C)O + O"
  solubility (g/100 g solution): 32.3
- Compound: "OCCN(CCO)c1nc(N2CCCCC2)c2nc(N(CCO)CCO)nc(N3CCCCC3)c2n1 + CO + O"
  solubility (g/100 g solution): 2.27
- Compound: "CC(N)C(=O)O (stereo not drawn) + O + CO"
  solubility (g/100 g solution): 1.03
- Compound: "S=c1[nH]ncs1 + CCCO + O"
  solubility (g/100 g solution): 26.9
- Compound: "CC(N)C(=O)O (stereo not drawn) + O + CC(C)O"
  solubility (g/100 g solution): 0.167

* * *

assay: xn = mol fraction of the nth substance listed, in the solute-free solvent; conditions: 293.15 K; x2 = 0.9
Recorded solubility (g/100 g solution) by entry
Property: solubility (g/100 g solution)

- Compound: "Cc1ncc(C[n+]2csc(CCO)c2C)c(N)n1.O=[N+]([O-])[O-] + O + CO"
  Observed result: 2.08
- Compound: "S=c1[nH]ncs1 + CO + O"
  Observed result: 15.8
- Compound: "CC(N)C(=O)O (stereo not given) + O + CCCO"
  Observed result: 5.63
- Compound: "CC(N)C(=O)O (stereo not given) + O + CCO"
  Observed result: 5.5
- Compound: "CC(N)C(=O)O (stereo not given) + O + CC(C)O"
  Observed result: 4.48
- Compound: "OCCN(CCO)c1nc(N2CCCCC2)c2nc(N(CCO)CCO)nc(N3CCCCC3)c2n1 + CC(C)O + O"
  Observed result: 4.8
- Compound: "S=c1[nH]ncs1 + CCCO + O"
  Observed result: 10.4
- Compound: "CC(N)C(=O)O (stereo not given) + O + CC(C)=O"
  Observed result: 4.17
- Compound: "CC(N)C(=O)O (stereo not given) + O + CO"
  Observed result: 7.7
- Compound: "S=c1[nH]ncs1 + CC(C)=O + O"
  Observed result: 25.6

* * *

assay: xn = mol fraction of the nth substance listed, in the solute-free solvent; conditions: 293.15 K; x2 = 0.2307

- Molecule: "Nc1cccc(S(=O)(=O)c2cccc(N)c2)c1 + CC(C)O + O"
  solubility (g/100 g solution): 0.5
- Molecule: "Cc1[nH]c(=O)c(C#N)cc1-c1ccncc1 + CC(C)O + O"
  solubility (g/100 g solution): 0.00797
- Molecule: "c1ccc2[nH]c(-c3cscn3)nc2c1 + CCCO + O"
  solubility (g/100 g solution): 0.188
- Molecule: "CN1CCN(C2=Nc3cc(Cl)ccc3Nc3ccccc32)CC1 + CC(C)O + O"
  solubility (g/100 g solution): 0.417
- Molecule: "Nc1nccnc1Cl + CC(C)O + O"
  solubility (g/100 g solution): 0.503
- Molecule: "c1ccc2[nH]c(-c3cscn3)nc2c1 + CC(C)O + O"
  solubility (g/100 g solution): 0.0858
